Each entry below lists one item and its recorded hERG current change (%, negative = inhibition) at 10uM value.
biological target: human ether-à-go-go-related gene (hERG) potassium channel (human); test: primary screen, population patch clamp on CHO cells stably expressing hERG; higher = less effect of the substance;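 also: peak tail current of the secondary pulse compared with the same well before compound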
Sequence (Q12809 whole entry, looked up): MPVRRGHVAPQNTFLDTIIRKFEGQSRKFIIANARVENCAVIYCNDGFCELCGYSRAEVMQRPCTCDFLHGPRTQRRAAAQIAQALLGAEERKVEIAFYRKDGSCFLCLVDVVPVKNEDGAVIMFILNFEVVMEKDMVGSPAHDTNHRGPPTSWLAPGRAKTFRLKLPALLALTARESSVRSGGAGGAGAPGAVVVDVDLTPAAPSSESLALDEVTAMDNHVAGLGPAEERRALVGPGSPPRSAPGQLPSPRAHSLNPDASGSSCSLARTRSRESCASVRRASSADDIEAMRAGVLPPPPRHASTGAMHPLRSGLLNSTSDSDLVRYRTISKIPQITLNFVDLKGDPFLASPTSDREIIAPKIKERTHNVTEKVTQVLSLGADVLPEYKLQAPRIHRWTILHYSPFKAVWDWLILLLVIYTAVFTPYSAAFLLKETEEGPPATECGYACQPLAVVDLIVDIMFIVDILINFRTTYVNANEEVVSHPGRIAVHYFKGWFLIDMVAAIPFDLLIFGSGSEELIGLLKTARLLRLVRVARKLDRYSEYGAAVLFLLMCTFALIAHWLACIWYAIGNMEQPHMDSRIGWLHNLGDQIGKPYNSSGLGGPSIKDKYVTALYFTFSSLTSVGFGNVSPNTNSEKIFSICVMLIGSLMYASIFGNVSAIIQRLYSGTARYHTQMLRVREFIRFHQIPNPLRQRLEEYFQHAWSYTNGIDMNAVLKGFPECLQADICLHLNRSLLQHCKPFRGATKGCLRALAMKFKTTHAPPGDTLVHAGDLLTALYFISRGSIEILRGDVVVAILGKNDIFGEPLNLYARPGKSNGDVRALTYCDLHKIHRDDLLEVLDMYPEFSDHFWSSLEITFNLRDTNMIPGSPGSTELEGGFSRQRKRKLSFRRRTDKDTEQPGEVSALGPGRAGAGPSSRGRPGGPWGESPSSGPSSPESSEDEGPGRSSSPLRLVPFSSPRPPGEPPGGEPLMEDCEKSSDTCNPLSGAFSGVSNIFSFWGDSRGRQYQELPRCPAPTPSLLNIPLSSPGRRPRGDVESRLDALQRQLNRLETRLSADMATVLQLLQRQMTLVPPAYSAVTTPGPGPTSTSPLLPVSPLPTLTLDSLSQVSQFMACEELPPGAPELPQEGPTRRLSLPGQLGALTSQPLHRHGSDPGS
In all, about 310,000 compounds went through this assay and about 14,000 (4.5%) showed an effect of 50% or more. The effect is printed as a negative number. Only a selection was taken, and strong results are over-represented in it overall.
observable: hERG current change (%, negative = inhibition) at 10uM (%)

[[record]]
compound = "CCOc1ccc(CCNC(=O)COC(=O)c2ccc(OC)c(OC)c2OC)cc1OCC"
reported = 12.2

[[record]]
compound = "O=C(NNC(=S)Nc1ccccc1Cl)c1ccccc1"
reported = 5.93

[[record]]
compound = "Cc1oc(-c2ccccc2)nc1CS(=O)CC(=O)NC1CCCCCC1 (stereo not drawn)"
reported = -11.5

[[record]]
compound = "CCCNC(=O)NC(=O)CSc1nnc(-c2ccncc2)n1CC"
reported = 11.6

[[record]]
compound = "CCOc1ccc(S(=O)(=O)Nc2ccc(C(=O)NCCCN3CCCC3=O)cc2)cc1"
reported = 0.2

[[record]]
compound = "CC(=O)c1ccc(N2CCN(C(=O)c3cc(-c4ccc5c(c4)OCO5)nc4ccccc34)CC2)cc1"
reported = 2.88


Ref: paper PMC4336329
